target system: human muscarinic acetylcholine M1 receptor (Homo sapiens, UniProt P11229)
Construct: expressed in transfected cells; host or cells: CHO-K1
Sequence (P11229 1-460): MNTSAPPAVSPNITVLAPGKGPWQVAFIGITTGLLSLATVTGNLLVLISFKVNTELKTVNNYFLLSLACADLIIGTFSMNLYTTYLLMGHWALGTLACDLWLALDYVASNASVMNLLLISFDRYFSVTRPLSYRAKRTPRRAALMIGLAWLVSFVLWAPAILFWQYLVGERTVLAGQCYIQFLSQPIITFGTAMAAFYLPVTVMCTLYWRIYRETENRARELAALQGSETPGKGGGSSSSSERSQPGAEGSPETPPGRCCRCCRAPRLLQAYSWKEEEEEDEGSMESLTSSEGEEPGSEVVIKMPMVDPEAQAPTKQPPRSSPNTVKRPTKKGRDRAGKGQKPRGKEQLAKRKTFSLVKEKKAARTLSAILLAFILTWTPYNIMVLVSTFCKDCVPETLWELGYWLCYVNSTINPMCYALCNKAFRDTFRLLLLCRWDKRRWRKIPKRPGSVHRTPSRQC
method: M1 PAM Assay (IP-One HTRF, IP1 accumulation in M1-CHO cells)
Assay type: cell-based
condition summary: CHO-K1 cells stably transfected with human M1 receptor; compounds added with EC20 of acetylcholine (25 nM), 30 min; intracellular IP1 by IP-One HTRF; read-out: M1 PAM EC50
pEC50: −log10 of the molar value.
quantity name: pEC50

[
  {
    "compound": "Cc1nc2c3c(nn2c(C)c1Cl)CN(C(=O)c1ccc(F)cc1OCCn1ccnc1C)C3",
    "pEC50": "5.52 to 6.00"
  },
  {
    "compound": "Cc1nc2c3c(nn2c(C)c1Cl)CN(C(=O)c1ccc(F)cc1OCCc1cncc(F)c1)C3",
    "pEC50": "> 6.70"
  },
  {
    "compound": "Cc1nc2c3c(nn2c(C)c1Cl)CN(C(=O)c1ccc(F)cc1O[C@H]1CC[C@H](O)CC1)C3 (single isomer, unassigned)",
    "pEC50": "> 6.70"
  }
]

Turning now to a further record.
Please look at this compound and report its pEC50: `COc1cncc(CCOc2cc(F)ccc2C(=O)N2Cc3nn4c(C)c(Cl)c(C)nc4c3C2)c1`
5.52 to 6.00

Cited source for all entries: patent US9505769B2
